Target: phosphorylated ERBB2 (pERBB2) (Homo sapiens)
Construct: endogenous in cells
Sequence (P04626 23-1255): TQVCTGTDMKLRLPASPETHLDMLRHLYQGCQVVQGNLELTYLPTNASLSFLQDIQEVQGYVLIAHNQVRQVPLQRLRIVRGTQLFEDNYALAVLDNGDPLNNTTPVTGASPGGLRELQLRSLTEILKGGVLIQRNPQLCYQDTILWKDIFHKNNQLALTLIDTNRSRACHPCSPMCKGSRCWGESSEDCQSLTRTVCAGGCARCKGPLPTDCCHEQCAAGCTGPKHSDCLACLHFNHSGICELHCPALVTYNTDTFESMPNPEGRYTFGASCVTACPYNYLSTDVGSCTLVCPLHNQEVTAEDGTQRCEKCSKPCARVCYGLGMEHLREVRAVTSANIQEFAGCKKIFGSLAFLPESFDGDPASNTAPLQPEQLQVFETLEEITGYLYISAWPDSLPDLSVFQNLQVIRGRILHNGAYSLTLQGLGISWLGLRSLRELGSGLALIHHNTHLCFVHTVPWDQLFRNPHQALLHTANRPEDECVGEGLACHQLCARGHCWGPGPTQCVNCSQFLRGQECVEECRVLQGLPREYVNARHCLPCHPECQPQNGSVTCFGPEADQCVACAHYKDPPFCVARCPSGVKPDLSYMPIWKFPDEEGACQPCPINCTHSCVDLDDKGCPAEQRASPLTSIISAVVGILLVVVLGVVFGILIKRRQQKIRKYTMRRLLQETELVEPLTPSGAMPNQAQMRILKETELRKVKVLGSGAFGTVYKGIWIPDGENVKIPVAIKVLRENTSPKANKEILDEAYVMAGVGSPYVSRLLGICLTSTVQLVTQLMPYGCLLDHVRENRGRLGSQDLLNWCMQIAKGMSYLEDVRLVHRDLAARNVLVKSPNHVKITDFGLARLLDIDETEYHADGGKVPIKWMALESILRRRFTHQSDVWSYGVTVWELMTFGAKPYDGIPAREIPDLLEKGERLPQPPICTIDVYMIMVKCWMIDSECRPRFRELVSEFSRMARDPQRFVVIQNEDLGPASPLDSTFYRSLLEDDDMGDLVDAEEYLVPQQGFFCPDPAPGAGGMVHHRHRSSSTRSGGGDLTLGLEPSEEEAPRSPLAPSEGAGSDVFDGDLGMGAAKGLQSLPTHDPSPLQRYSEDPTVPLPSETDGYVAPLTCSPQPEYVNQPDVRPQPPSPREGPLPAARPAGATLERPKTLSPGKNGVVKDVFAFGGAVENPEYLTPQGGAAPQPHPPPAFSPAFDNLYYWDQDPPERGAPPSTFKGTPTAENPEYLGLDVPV
Assay: Detection of phosphorylated ERBB2 (pERBB2) by ELISA in BT-474 cells
Conditions: four hours incubation with compound, OD 450 nm

- SMILES_STR: "CC#CC(=O)Nc1cc2c(Nc3cc(Cl)c(Oc4ccn5ncnc5c4)cc3F)ncnc2cc1OCCN(C)C"
  TARGET_DESC: "phosphorylated ERBB2 (pERBB2) (Homo sapiens)"
  UNIT_OF_MEASURE: "nM"
  IC50: 11.4
- SMILES_STR: "CC#CC(=O)Nc1ccc2ncnc(Nc3ccc(Oc4ccn(C)c(=O)c4)c(C)c3)c2c1"
  TARGET_DESC: "phosphorylated ERBB2 (pERBB2) (Homo sapiens)"
  UNIT_OF_MEASURE: "nM"
  IC50: 152
- SMILES_STR: "CC#CC(=O)Nc1ccc2ncnc(Nc3ccc(Oc4ccc5c(c4)ncn5C)c(C)c3)c2c1F"
  TARGET_DESC: "phosphorylated ERBB2 (pERBB2) (Homo sapiens)"
  UNIT_OF_MEASURE: "nM"
  IC50: 32.4
- SMILES_STR: "CC#CC(=O)Nc1cc2c(Nc3ccc(Oc4ccn5ncnc5c4)c(C)c3)ncnc2cc1OCCN1CCN(C)CC1"
  TARGET_DESC: "phosphorylated ERBB2 (pERBB2) (Homo sapiens)"
  UNIT_OF_MEASURE: "nM"
  IC50: 6.05

* * *

Biological target: phosphorylated ERBB2 (pERBB2) (Homo sapiens)
Construct: endogenous in cells
Assay: Detection of phosphorylated ERBB2 (pERBB2) by ELISA in BT-474 cells
Settings: four hours incubation with compound, OD 450 nm
Class field: derived from IC50; ranges low bracket = under 20 nM, middle bracket = from 20 nM up to 50 nM, high bracket = 50 nM and over

- SMILES_STR: "CNCCOc1cc2ncnc(Nc3ccc(Oc4ccn5ncnc5c4)c(C)c3)c2cc1NC(=O)C#CC1CC1"
  CATEGORY_LABEL: "middle bracket"
- SMILES_STR: "CC#CC(=O)Nc1cc2c(Nc3ccc(Cc4ccn5ncnc5c4)c(C)c3)ncnc2cc1OCCN(C)C"
  CATEGORY_LABEL: "low bracket"
- SMILES_STR: "Cc1cc(Nc2ncnc3ccc(NC(=O)C#CC4(C)CC4)cc23)ccc1Oc1ccn2ncnc2c1"
  CATEGORY_LABEL: "low bracket"
- SMILES_STR: "CC#CC(=O)Nc1ccc2ncnc(Nc3ccc(Oc4ccc5nccnc5c4)c(C)c3)c2c1"
  CATEGORY_LABEL: "middle bracket"
- SMILES_STR: "Cc1cc(Nc2ncnc3cc(OCCN(C)C)c(NC(=O)C#CC(C)(C)C)cc23)ccc1Oc1ccn2ncnc2c1"
  CATEGORY_LABEL: "high bracket"
- SMILES_STR: "CC#CC(=O)Nc1cc2c(Nc3ccc(Oc4ccn5ncnc5c4)c(C)c3F)ncnc2cc1OCCN(C)C"
  CATEGORY_LABEL: "middle bracket"
- SMILES_STR: "CC#CC(=O)Nc1c(OCCCN(C)C)cc2ncnc(Nc3ccc(Cc4ccn5ncnc5c4)c(C)c3)c2c1F"
  CATEGORY_LABEL: "high bracket"
- SMILES_STR: "CC#CC(=O)Nc1cc2c(Nc3ccc(Oc4ccn5ncnc5c4)c(Cl)c3)ncnc2cc1OCCN(C)C"
  CATEGORY_LABEL: "low bracket"
- SMILES_STR: "CC#CC(=O)Nc1ccc2ncnc(Nc3ccc(Cc4ccn5ncnc5c4)cc3)c2c1"
  CATEGORY_LABEL: "low bracket"
- SMILES_STR: "Cc1c(Oc2ccn3ncnc3c2)ccc(Nc2ncnc3cc(OCCN(C)C)c(NC(=O)C#CC4CC4)cc23)c1F"
  CATEGORY_LABEL: "high bracket"
- SMILES_STR: "CC#CC(=O)Nc1cc2c(Nc3ccc(Cc4ccn5ncnc5c4)c(F)c3)ncnc2cc1OCCN(C)C"
  CATEGORY_LABEL: "middle bracket"
- SMILES_STR: "CC#CC(=O)Nc1cc2c(Nc3ccc(Oc4ccc(C)nc4)c(C)c3)ncnc2cc1OCCN(C)C"
  CATEGORY_LABEL: "low bracket"
- SMILES_STR: "CC#CC(=O)Nc1ccc2ncnc(Nc3cc(C)c(Oc4ccn5ncnc5c4)cc3F)c2c1F"
  CATEGORY_LABEL: "low bracket"
- SMILES_STR: "CC#CC(=O)Nc1ccc2ncnc(Nc3ccc(Oc4ccc5c(c4)ncn5C)c(C)c3)c2c1"
  CATEGORY_LABEL: "high bracket"
- SMILES_STR: "CC#CC(=O)Nc1ccc2ncnc(Nc3ccc(Oc4cnc(C)cn4)cc3)c2c1"
  CATEGORY_LABEL: "high bracket"

The measurements presented in this section are drawn from patent US20230265098A1.
